system: Wolbachia pipientis; test: Anti-Wolbachia Cell-Based Screen; assay type: functional; design: scale not given: in the data most compounds retested in dose-response had high values; conditions: 5 µM
Out of some 48,000 compounds screened, about 13,000 (27%) showed an effect of 50% or more. Some of the results follow.
Hi there, I'd appreciate the recorded Percent Effect for every entry that follows.
Entry rule: numbers only, all in %.

Query :: # get_value(readout='Percent Effect', item= `Cc1ccc(-c2nc(CNc3ccc(C(N)=O)c(C)c3)cs2)o1` )
Result :: 16.54

Query :: Then this compound: `CCN(CCc1nc2cc(C)ccc2[nH]1)C(=O)[C@@H](N)Cc1c[nH]cn1`
Result :: -4.555

Query :: Now this one: O=C1CC(NS(=O)(=O)c2ccc(Cl)cc2)CN1 (stereo unspecified)
Result :: 124.5

Query :: // same read-out, input: `CNC(=O)[C@H]1C[C@@H]2CN(S(=O)(=O)c3cccc(F)c3)C[C@@H]2N1C.O=C(O)C(F)(F)F`
Result :: -6.312

Query :: Moving on to the next compound: `O=C(O)C(F)(F)F.O=C(c1cccs1)N1CCC[C@]2(C[C@@H](OCc3ccncc3)CO2)C1`
Result :: -0.9808

Query :: Again, but for `Cc1ocnc1C(=O)N[C@H]1CN(CC2CCC2)C[C@@H]1C(C)C`
Result :: 16.35

Query :: Now try `CC(C)c1nc(CNc2ccc(CCO)cc2)cs1` .
Result :: -6.765

Query :: Would you mind doing `Cc1occc1C(=O)NCC(=O)N1CCC(COc2ccccc2)CC1` as well?
Result :: 1.262

Query :: Repeat with CS(=O)(=O)c1ccc(CN2CCCC3(C2)C(=O)Nc2ccccc23)cc1 (stereo unspecified)
Result :: 12.45

Query :: Would you mind doing `COCc1nc2cc(NCc3csc(C)n3)ccc2o1` as well?
Result :: -10.85

Query :: Similarly, O=C(NC1CC(=O)N(C2Cc3ccccc3C2)C1)c1ccsc1 (stereo unspecified) ?
Result :: -4.544

Query :: Now the compound `COc1cc(Nc2c(C#N)c(=O)n(C)c(=O)n2C)cc(OC)c1`
Result :: 0.2169

Query :: Same question for `CCC(CC)N(Cc1ccc2c(c1)OCO2)C(=O)c1ccc(=O)n(C)c1` please.
Result :: -1.967

Query :: Record: OCC1CCCN1c1cc(N2CCc3ccccc3C2)ncn1 (stereo unspecified)
Result :: -8.701

Query :: For O=C1Nc2ccccc2CC12CCCN2Cc1ccc(C(F)(F)F)cc1 (stereo unspecified) then?
Result :: 105.2

Query :: Lookup `CC(C)(C)OC(=O)N1CSC[C@@H]1C(=O)NCc1ccncc1`
Result :: -9.296

Query :: How about this compound: `CNC(=O)Cc1nc(CNc2ccc(SC)c(F)c2)cs1`
Result :: 0.08952

Query :: Next compound: `Cc1noc(C)c1CNc1ccc2nc(C3CC3)sc2c1`
Result :: -3.579

Query :: Can you check CCOC(=O)c1nc(CN2CCN(C(C)C(=O)NC3CC3)CC2)cs1 (stereo unspecified) next?
Result :: -13.36

Query :: Could you do the same for `OC[C@H]1CCCN1c1nccc(-c2c[nH]nc2C2CCCCC2)n1` , please?
Result :: 103.3

Query :: And what about the compound `CCCN1CCc2[nH]cnc2C12CCN(C(=O)CCn1cccn1)CC2` ?
Result :: -44.41

Query :: Item: COc1cccc([S+]([O-])CC(=O)NCc2cc(F)cc(F)c2)c1 (stereo unspecified)
Result :: -14.98

Query :: Field entry: `COc1ccc(CN(C)c2ccc(-c3nccn3C)nn2)cc1OC`
Result :: -9.583

Query :: Would you kindly repeat that for `CCC[C@@H]1CN(Cc2cc3c(cc2OC)OCCO3)C[C@H]1C(=O)O` ?
Result :: -0.5486

Query :: Quick one: `CC(=O)Nc1ccc(CC(=O)N2CC(S(=O)(=O)C3CCCCC3)C2)cc1`
Result :: 1.653

Query :: For `CN(Cc1ccncc1)C(=O)[C@H]1CSCN1C(=O)OC(C)(C)C` then?
Result :: 103.4

Query :: Then O=C(NCc1cc(O)ncn1)C1CCOc2ccccc2C1 (stereo unspecified) ?
Result :: 8.885

Query :: Proceed to `OC[C@H]1CCCN1c1nccc(-c2cncnc2C2CCCCC2)n1`
Result :: 101.1

Query :: Then `Cc1cc(NC(=O)N(CCC#N)CCCN(C)C)ccc1F` ?
Result :: -0.7911

Query :: What do we get for `Cc1cn2c(CN(C)C(=O)c3ncoc3C)c(C)nc2s1` ?
Result :: -12.17

Query :: `OC[C@@H]1CCCN1c1ccc(-c2nc(COc3ccccc3)no2)cn1` , same question.
Result :: -5.727

Query :: Subsequent entry: `COCCNC(=O)c1ccc(NCc2csc(C)n2)cc1Cl`
Result :: 103.1

Query :: What do you get for `COC(=O)c1ccc(NCc2csc(C)n2)cc1Cl` ?
Result :: 105.1

Query :: Next entry: `O=C(CN1CCN(c2ccnc3c(F)ccc(F)c23)CC1)N1CCCC1`
Result :: -6.623

Query :: Now give it for `O=C(COCC1CC1)Nc1cc(S(=O)(=O)NC2CC2)ccc1F` too.
Result :: 1.35

Query :: # repeat for CCC(C(=O)NC)N(c1cccc(C)c1)S(C)(=O)=O (stereo unspecified)
Result :: 11.36

Query :: What about this compound? `Cc1ocnc1C(=O)N(C)[C@@H]1CC[C@@H](n2ccnc2C)[C@@H]1O`
Result :: 115

Query :: Cool, now Cc1ccc(S(=O)(=O)NC2CNC(=O)C2)cc1C (stereo unspecified)
Result :: -5.685

Query :: // same read-out, input: `Cc1ocnc1C(=O)N(Cc1cccnc1)C[C@@H]1CCC(=O)N1`
Result :: -1.977

Query :: # iterate: COCCC1(CO)CCCN(Cc2ccc(C(F)(F)F)cc2)C1 (stereo unspecified)
Result :: -12.26

Query :: How about CN(CCc1ccncc1)C(=O)C1CSCN1C(=O)C(C)(C)C (stereo unspecified) ?
Result :: -12.64

Query :: Another compound: `Cc1cc(CN[C@@H](Cc2ccccc2)C(N)=O)c(C)s1`
Result :: -7.626

Query :: Same question, O=C1CC(NS(=O)(=O)c2ccccc2)CN1Cc1ccccc1 (stereo unspecified) this time
Result :: 4.424

Query :: Could you do the same for c1ccc2c(c1)CC(N1CCCC(NCc3cccc4nonc34)C1)C2 (stereo unspecified) , please?
Result :: -10.52

Query :: CC(C)c1nc2n(n1)CC(NCc1nc(-c3cccnc3)no1)CC2 (stereo unspecified) ?
Result :: -4.778

Query :: Query `COC(=O)c1cc(NCc2cscn2)ccc1C` next
Result :: 4.935

----------
test system: Wolbachia pipientis; test: Anti-Wolbachia Cell-Based Screen; assay type: functional; design: scale not given: in the data most compounds retested in dose-response had high values; conditions: 5 µM
Hit rate of the full screen: of about 48,000 compounds, about 13,000 (27%) showed an effect of 50% or more. Some of the results follow.
Measurement Type: Percent Effect (%)
Give the value in % but do not write % after it.

Query :: Quick one: Percent Effect of `Cc1ccnc2c1NC(=O)CN2C(=O)CCC(F)(F)F` ?
Result :: -8.698

Query :: Repeat for the following compound: `CCOc1ccc(CCCC(=O)N2CC[C@H](NC(C)=O)C2)cc1C`
Result :: 116.5

Query :: Another compound to check: CC1CCCN1C1CCN(C(=O)c2cccc(-c3ccoc3)c2)CC1 (stereo unspecified)
Result :: 2.618

Query :: For CS(=O)(=O)CCCNC(=O)NC1CC(c2cccc(Cl)c2)C1 (stereo unspecified) then?
Result :: -3.705

Query :: Then this compound: CCc1ccc(CC)c(NCC(=O)N2CCCC(NC(C)=O)C2)c1 (stereo unspecified)
Result :: 8.422

Query :: Record: CNC(=O)C1CCN(C(=O)c2coc(COc3ccc(OC)cc3)n2)C1 (stereo unspecified)
Result :: -10.95

Query :: // next record CC(C)Cc1nc(CN2CCC3(CCCO3)CCC2=O)no1 (stereo unspecified)
Result :: -10.71

Query :: Also need `CCOc1cc(NC(=O)N2CCC(c3nnc[nH]3)CC2)ccc1C` , thanks.
Result :: 11.09

Query :: Now the compound `CCN(Cc1cnn(CC)c1)C(=O)Cn1c(=O)ccc2ccccc21`
Result :: 8.668

Query :: And CCNC(=O)N1CCC(NC(=O)NCCCc2cccc(F)c2)C1 (stereo unspecified) ?
Result :: -2.549

Query :: Follow-up item: CCOc1ccc(C(C)NC(=O)N2CCC(C(N)=O)CC2)cc1OC (stereo unspecified)
Result :: -11.4

----------
system: Wolbachia pipientis; assay: Anti-Wolbachia Cell-Based Screen; assay type: functional; design: scale not given: in the data most compounds retested in dose-response had high values; conditions: 5 µM
About 13,000 (27%) of roughly 48,000 compounds showed an effect of 50% or more. The list shows a part of the results.
Measurement Type: Percent Effect (%)
Respond with the bare value in %.

Query :: Which Percent Effect is reported with Wolbachia pipientis for this entry: COC(=O)c1ccc(N2CCN(C(=O)c3ccncc3)C(C)C2)cc1 (stereo not given) ?
Result :: -9.258

Query :: Similarly, CC(O)C1CCN(c2cc(Cl)ccc2C#N)CC1 (stereo not given) ?
Result :: -3.342

Query :: Now consider COc1ccc(CNC(=O)NCC(O)(c2cccs2)C2CC2)cc1 (stereo not given) .
Result :: 11.16

Query :: `NS(=O)(=O)CCNC(=O)c1ccc(OCc2ccccc2)nc1` ?
Result :: 5.557

Query :: Same again, this time with CCC(CNC(=O)N1CCOCC2(CCOCC2)C1)c1ccccc1 (stereo not given)
Result :: -24.39

Query :: Further, for Cc1ccccc1NC(=O)NCC(C)(O)c1cccs1 (stereo not given) ?
Result :: 117.7

Query :: # repeat for `COCCCN(C)C(=O)Cn1cccc(OC)c1=O`
Result :: -68.57

Query :: Field entry: `CC(=O)Nn1ccc2c(nnc3c(-c4ccc(F)cc4)cnn32)c1=O`
Result :: 91.05

Query :: Okay, and `COc1ccccc1C1(CNc2ncc(S(N)(=O)=O)s2)CC1` ?
Result :: -5.545

Query :: Next record, please: CC(CNC(=O)Nc1cn[nH]c1)N1CCOCC1 (stereo not given)
Result :: 3.391

Query :: Entry to check: CCN1CC2(CCN(C(=O)C(C)Oc3cccc(Cl)c3)CC2)OC1=O (stereo not given)
Result :: -19.97

Query :: Try the molecule `CNCc1n[nH]c(=O)n1CC1CCCCC1`
Result :: 9.971

Query :: Quick one: COc1ccc(C(CNC(=O)Nc2cn[nH]c2)N2CCOCC2)cc1 (stereo not given)
Result :: -0.482

Query :: Now try `CC(=O)Nn1ccc2c(nnc3c(-c4ccccc4)cnn32)c1=O` .
Result :: 95.62

Query :: Can you check `Nc1ccc(C(=O)N2CCC(Oc3cccc(C(F)(F)F)c3)CC2)cn1` next?
Result :: -4.227

Query :: What would you report for CCOc1ccc(NC(=O)NCC(C)(O)c2cccs2)cc1 (stereo not given) ?
Result :: 123.8

Query :: Follow-up item: CN1CCOC(C(=O)N2CCOC3(CCCC3)C2)C1 (stereo not given)
Result :: 0.3314

Query :: Next molecule: O=C(NCC(c1ccccc1)N1CCOCC1)Nc1cn[nH]c1 (stereo not given)
Result :: 127.8

Query :: Lookup `Cc1nccnc1N1Cc2cnn(Cc3ccc(F)cc3)c2C1`
Result :: 9.58

Query :: What do you have for CCOCc1ccccc1NC(=O)NCC(C)(O)c1cccs1 (stereo not given) ?
Result :: -8.36

Query :: Please give the result for N#CC1COCCN1S(=O)(=O)c1ccc2c(c1)CCC2 (stereo not given) too.
Result :: 4.042

Query :: Repeat with CSCCC(C)(O)CNC(=O)Nc1ccccc1C (stereo not given)
Result :: 6.778

Query :: // same read-out, input: CCOC(C)c1nc(CN2CCN(Cc3cccnc3)CC2)cs1 (stereo not given)
Result :: -1.889

Query :: Try this molecule too: CCC(O)CN(CC(=O)Nc1cc(C)no1)c1ccccc1 (stereo not given)
Result :: 5.147

Query :: Now the same for `Cc1nc(C(C)C)cc(N2CCC3(CCC(=O)N(CC4CC4)C3)CC2)n1`
Result :: 0.1735

Attribution: ChEMBL document CHEMBL3988442
